test system: HIV-1 pseudotyped virus; assay: HIV-1 pseudotyped virus assay (luciferase reporter gene, single cycle of infection); assay type: cell-based; settings: Human immunodeficiency virus 1, CCR5, 72 h, read-out: Activity (antiviral activity, IC50)
pIC50: −log10 of the molar value.
READOUT NAME: pIC50

Use the examples below as a reference point.
>  <COMPOUND>
CC1CN(C(=O)c2ccccc2)CCN1S(=O)(=O)c1ccc(C(=O)c2cnc[nH]2)s1 (centres unmarked)

>  <EXPERIMENTAL SYSTEM>
HIV-1 pseudotyped virus

>  <pIC50>
< 5.30

$$$$
>  <COMPOUND>
Cc1cc(-c2ccc(C(=O)C(=O)N3CCN(C(=O)c4ccccc4)C[C@H]3C)cc2F)on1

>  <EXPERIMENTAL SYSTEM>
HIV-1 pseudotyped virus

>  <pIC50>
> 5.30

$$$$
>  <COMPOUND>
CNc1cc(-c2cc[nH]n2)ccc1C(=O)C(=O)N1CCN(C(=O)c2ccccc2)C[C@H]1C

>  <EXPERIMENTAL SYSTEM>
HIV-1 pseudotyped virus

>  <pIC50>
< 5.30

$$$$
>  <COMPOUND>
CC1CN(C(=O)c2ccccc2)CCN1S(=O)(=O)c1ccc(-c2ncnc3ccsc23)s1 (centres unmarked)

>  <EXPERIMENTAL SYSTEM>
HIV-1 pseudotyped virus

>  <pIC50>
< 5.30

$$$$
>  <COMPOUND>
CC(=O)c1ccc(-n2cc(-c3ccc(S(=O)(=O)N4CCN(C(=O)c5ccccc5)C[C@H]4C)cc3)nn2)cc1

>  <EXPERIMENTAL SYSTEM>
HIV-1 pseudotyped virus

>  <pIC50>
< 5.30

$$$$

Input line: Entry `C[C@@H]1CN(C(=O)c2ccccc2)CCN1C(=O)C(=O)c1ccc(-c2nc[nH]n2)cc1` : reported pIC50 = ?
Output line: > 5.30

Input line: Moving on to CC1CN(C(=O)c2ccccc2)CCN1S(=O)(=O)c1ccc(-c2cccnc2)s1 (centres unmarked)
Output line: < 5.30

Input line: Entry to check: `Cc1cc(C)n(-c2ccc(C(=O)C(=O)N3CCN(C(=O)c4ccccc4)C[C@H]3C)cc2)n1`
Output line: < 5.30
